System Name: Human galectin-1 (Homo sapiens, UniProt P09382)
Construct: made in house
Sequence (P09382 whole entry): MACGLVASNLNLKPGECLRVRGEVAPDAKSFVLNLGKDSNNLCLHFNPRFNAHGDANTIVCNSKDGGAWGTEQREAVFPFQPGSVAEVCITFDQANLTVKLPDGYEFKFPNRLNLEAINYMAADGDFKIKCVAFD
Assay: competitive fluorescence polarization assay, galectin-1
Format: binding
Condition Label: galectin-1 0.5 µM, fluorescent probe 20 nM; read-out: Dissociation constant KD ± SEM, galectin-1
pKd: −log10 of the molar value.
Measurement Name: pKd

Per the record, "OC[C@H]1O[C@H](Cn2cc(-c3ccc(F)cc3)nn2)[C@H](O)[C@@H](O)[C@H]1O" has pKd of 3.77

# pKd (molecule: "OC[C@H]1O[C@@H](Cn2cc(-c3ccc(-c4ccccc4)cc3)nn2)[C@H](O)[C@@H](O)[C@H]1O" ) is 3.15

Query "Cc1ccc(-c2cn(C[C@H]3O[C@H](CO)[C@H](O)[C@H](O)[C@H]3O)nn2)cc1" yields pKd of 3.00

// pKd lookup, molecule = "OC[C@H]1O[C@H](Cn2cc(-c3ccc(F)cc3F)nn2)[C@H](O)[C@@H](O)[C@H]1O" , result: 2.96

A. OC[C@H]1O[C@H](Cn2cc(-c3ccc(OC(F)(F)F)cc3)nn2)[C@H](O)[C@@H](O)[C@H]1O
B. OC[C@H]1O[C@H](Cn2cc(-c3ccc(F)c(F)c3)nn2)[C@H](O)[C@@H](O)[C@H]1O
C. OC[C@H]1O[C@H](Cn2cc(-c3cccc4ccccc34)nn2)[C@H](O)[C@@H](O)[C@H]1O
D. OC[C@H]1O[C@H](Cn2cc(-c3ccc4ccccc4c3)nn2)[C@H](O)[C@@H](O)[C@H]1O
Sort low-to-high on pKd, please. Please list the labels according to the requested order.
D, B, A, C

1. OC[C@H]1O[C@H](Cn2cc(-c3ccccc3)nn2)[C@H](O)[C@@H](O)[C@H]1O
2. OC[C@H]1O[C@H](Cn2cc(-c3cc(F)cc(F)c3)nn2)[C@H](O)[C@@H](O)[C@H]1O
// compare measured pKd, left 1 , right 2 , return larger Refer to your chosen entry by its label in the reply.
1
(1: 3.22, 2: 2.96)

a. Cc1cccc(-c2cn(C[C@H]3O[C@H](CO)[C@H](O)[C@H](O)[C@H]3O)nn2)c1
b. OC[C@H]1O[C@H](Cn2cc(-c3ccccc3F)nn2)[C@H](O)[C@@H](O)[C@H]1O
c. OC[C@H]1O[C@H](Cn2cc(-c3ccc(C(F)(F)F)cc3)nn2)[C@H](O)[C@@H](O)[C@H]1O
Reorder the items by pKd, least to greatest. Put the labels in the requested order and write them down.
a, b, c

---

System Name: Human galectin-1 (Homo sapiens)
Construct: made in house
Assay: competitive fluorescence polarization assay, galectin-1
Assay type: binding
Condition Label: ratio of galectin-3 KD to galectin-1 KD
Procedure: Galectin-1, -3, -4C (C-terminal CRD), -4N (N-terminal CRD), -7, -8C, -8N, -9C, and -9N affinities for (aryltriazolyl)methyl galactopyranosyls 1a–n were determined in a competitive fluorescence polarization titration assay [[…]]. Human galectin-1 [36] and galectin-3 [37] were expressed and purified as earlier described. Fluorescence polarization experiments were performed on a PheraStarFS plate reader with software PHERAstar Mars version 2.10 R3 (BMG, Offenburg, Germany). […]
Measurement Name: Selectivity Galectin-1/3

Lookup result for "OC[C@H]1O[C@@H](Cn2cc(-c3ccc(-c4ccccc4)cc3)nn2)[C@H](O)[C@@H](O)[C@H]1O" ; measured Selectivity Galectin-1/3: 1.7

1. OC[C@H]1O[C@H](Cn2cc(-c3ccc(C(F)(F)F)cc3)nn2)[C@H](O)[C@@H](O)[C@H]1O
2. OC[C@H]1O[C@H](Cn2cc(-c3cc(F)cc(F)c3)nn2)[C@H](O)[C@@H](O)[C@H]1O
3. OC[C@H]1O[C@H](Cn2cc(-c3ccc(OC(F)(F)F)cc3)nn2)[C@H](O)[C@@H](O)[C@H]1O
Let's sort these by Selectivity Galectin-1/3, smallest first. Go ahead? List each label, following the requested order.
2, 3, 1
(2: 0.7, 3: 1.4, 1: 3.5)

---

System Name: galectin-3 (Homo sapiens)
Construct: made in house
Sequence (P17931 whole entry): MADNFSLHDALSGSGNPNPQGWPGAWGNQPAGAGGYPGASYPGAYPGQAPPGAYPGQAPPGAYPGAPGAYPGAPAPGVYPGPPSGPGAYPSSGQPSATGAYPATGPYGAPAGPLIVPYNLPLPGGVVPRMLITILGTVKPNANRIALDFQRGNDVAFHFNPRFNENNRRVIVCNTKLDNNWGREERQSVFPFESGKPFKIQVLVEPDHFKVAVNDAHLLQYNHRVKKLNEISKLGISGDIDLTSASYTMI
Assay: competitive fluorescence polarization assay, galectin-3
Format: binding
Condition Label: galectin-3 0.2 µM, fluorescent probe 20 nM; read-out: Dissociation constant KD ± SEM, galectin-3
Measurement Name: Kd (µM)

Entry "OC[C@H]1O[C@H](Cn2cc(-c3cc(F)cc(F)c3)nn2)[C@H](O)[C@@H](O)[C@H]1O" , Kd reported as 790

I. OC[C@H]1O[C@@H](Cn2cc(-c3ccc(-c4ccccc4)cc3)nn2)[C@H](O)[C@@H](O)[C@H]1O
II. OC[C@H]1O[C@H](Cn2cc(-c3ccc(OC(F)(F)F)cc3)nn2)[C@H](O)[C@@H](O)[C@H]1O
III. OC[C@H]1O[C@H](Cn2cc(-c3cccc4ccccc34)nn2)[C@H](O)[C@@H](O)[C@H]1O
Ascending by Kd, please: list the compounds accordingly. Present the labels in the sequence the task asks for.
III, II, I

1. OC[C@H]1O[C@H](Cn2cc(-c3ccccc3)nn2)[C@H](O)[C@@H](O)[C@H]1O
2. OC[C@H]1O[C@H](Cn2cc(-c3ccc4ccccc4c3)nn2)[C@H](O)[C@@H](O)[C@H]1O
Lower value for measured Kd? Options: 1 , 2 Please respond with the label that marks your chosen entry.
1

---

System Name: Human galectin-1 (Homo sapiens)
Construct: made in house
Assay: competitive fluorescence polarization assay, galectin-1
Type: binding
Condition Label: ratio of galectin-3 KD to galectin-1 KD
Measurement Name: Selectivity Galectin-1/3

Sample "OC[C@H]1O[C@H](Cn2cc(-c3cccc4ccccc34)nn2)[C@H](O)[C@@H](O)[C@H]1O" , system: Human galectin-1 (Homo sapiens). Its Selectivity Galectin-1/3 is 2.6

"OC[C@H]1O[C@H](Cn2cc(-c3cccc(F)c3)nn2)[C@H](O)[C@@H](O)[C@H]1O" on Human galectin-1 (Homo sapiens) gives Selectivity Galectin-1/3 = 0.6

A. OC[C@H]1O[C@H](Cn2cc(-c3ccccc3)nn2)[C@H](O)[C@@H](O)[C@H]1O
B. OC[C@H]1O[C@H](Cn2cc(-c3ccc(F)cc3F)nn2)[C@H](O)[C@@H](O)[C@H]1O
Select one: A or B . Criterion: greater recorded Selectivity Galectin-1/3. Reply briefly: the label of your chosen item.
A

---

System Name: galectin-3 (Homo sapiens)
Construct: made in house
Assay: competitive fluorescence polarization assay, galectin-3
Format: binding
Condition Label: galectin-3 0.2 µM, fluorescent probe 20 nM; read-out: Dissociation constant KD ± SEM, galectin-3
Method: Galectin-1, -3, -4C (C-terminal CRD), -4N (N-terminal CRD), -7, -8C, -8N, -9C, and -9N affinities for (aryltriazolyl)methyl galactopyranosyls 1a–n were determined in a competitive fluorescence polarization titration assay [[…]]. […] Human galectin-1 [36] and galectin-3 [37] were expressed and purified as earlier described. Fluorescence polarization experiments were performed on a PheraStarFS plate reader with software PHERAstar Mars version 2.10 R3 (BMG, Offenburg, Germany). […]
pKd: −log10 of the molar value.
Measurement Name: pKd

What the record says about "OC[C@H]1O[C@H](Cn2cc(-c3ccc(C(F)(F)F)cc3)nn2)[C@H](O)[C@@H](O)[C@H]1O" : pKd is 3.08

Reported pKd for "OC[C@H]1O[C@H](Cn2cc(-c3cccc(F)c3)nn2)[C@H](O)[C@@H](O)[C@H]1O" was 3.14
